The measured values listed here are drawn from ChEMBL document CHEMBL1129006.

molecular target: 72 kDa type IV collagenase (Homo sapiens, UniProt P08253)
Sequence (P08253 whole entry): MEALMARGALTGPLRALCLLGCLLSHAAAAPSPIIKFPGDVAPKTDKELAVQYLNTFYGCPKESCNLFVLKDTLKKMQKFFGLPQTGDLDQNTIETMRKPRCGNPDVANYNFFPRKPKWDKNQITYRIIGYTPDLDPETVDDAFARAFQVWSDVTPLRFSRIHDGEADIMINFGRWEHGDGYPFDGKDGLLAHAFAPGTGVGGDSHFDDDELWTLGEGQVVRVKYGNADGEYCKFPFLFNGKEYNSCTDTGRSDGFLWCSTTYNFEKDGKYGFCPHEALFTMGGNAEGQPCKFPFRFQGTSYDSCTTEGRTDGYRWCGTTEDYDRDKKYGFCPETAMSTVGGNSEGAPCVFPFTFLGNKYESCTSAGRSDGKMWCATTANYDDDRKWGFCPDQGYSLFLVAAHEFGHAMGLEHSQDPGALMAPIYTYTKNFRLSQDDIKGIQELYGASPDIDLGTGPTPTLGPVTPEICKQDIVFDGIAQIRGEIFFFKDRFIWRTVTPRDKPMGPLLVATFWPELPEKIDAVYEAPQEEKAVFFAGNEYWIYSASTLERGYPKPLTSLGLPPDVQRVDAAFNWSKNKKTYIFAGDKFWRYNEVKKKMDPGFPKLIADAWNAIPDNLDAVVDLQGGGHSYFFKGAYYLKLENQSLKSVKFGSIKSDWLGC
Form field: pKi (one value per entry).
pKi is a log-scale quantity: -log10 of the concentration expressed in molar.

Here's what some known entries look like.
                        structure_as_smiles  observable  measured
0  CCCc1ccc(CC[C@H](CCC(=O)O)C(=O)N[C@@H](CC(C)C)C(=O)Nc2ccccc2)cc1         pKi      6.66
1  CCCc1ccc(CC[C@H](C[C@H](C)C(=O)O)C(=O)N[C@@H](CC(C)C)C(=O)Nc2ccccc2)cc1         pKi      6.51
2  CCCc1ccc(CC[C@H](C[C@H](CCCCN2Cc3ccccc3C2=O)C(=O)O)C(=O)N[C@@H](CC(C)C)C(=O)Nc2ccccc2)cc1         pKi      8.24

Shifting focus to the compound that follows.
For the compound "CCCc1ccc(CC[C@H](N[C@H](CCCCN2Cc3ccccc3C2=O)C(=O)O)C(=O)N[C@@H](CC(C)C)C(=O)Nc2ccccc2)cc1" , give its reported pKi.
6.96

----------
Target or system Interstitial collagenase (Homo sapiens): recorded Ki listed per item.

Take a look at these entries with their results.
>>> print(df.to_string())
                        structure_as_smiles  observable  measured
0  CCCc1ccc(CC[C@H](N[C@H](CCCCN2Cc3ccccc3C2=O)C(=O)O)C(=O)N[C@@H](CC(C)C)C(=O)Nc2ccccc2)cc1          Ki    1.6 µM
1  CCCc1ccc(CC[C@H](CCC(=O)O)C(=O)N[C@@H](CC(C)C)C(=O)Nc2ccccc2)cc1          Ki   > 10 µM
2  CCCc1ccc(CC[C@H](N[C@H](CCCCN2C(=O)c3ccccc3C2=O)C(=O)O)C(=O)N[C@@H](CC(C)C)C(=O)Nc2ccccc2)cc1          Ki   > 10 µM

State Ki (Interstitial collagenase (Homo sapiens)) of "CCCc1ccc(CC[C@H](C[C@H](CCCCN2Cc3ccccc3C2=O)C(=O)O)C(=O)N[C@@H](CC(C)C)C(=O)Nc2ccccc2)cc1" .
> 10 µM

----------
Record set of Ki for target or system Stromelysin-1 (Homo sapiens, UniProt P08254).
Numeric answer only, unit nM assumed.

>>> print(df.to_string())
                        structure_as_smiles                                    target  measured
0  CC(C)C[C@H](NC(=O)[C@H](CCc1ccccc1)NCC(=O)O)C(=O)Nc1ccccc1  Stromelysin-1 (Homo sapiens, UniProt P08254)      3600
1  CCCc1ccc(CC[C@H](N[C@H](CCCCN2C(=O)c3ccccc3C2=O)C(=O)O)C(=O)N[C@@H](CC(C)C)C(=O)Nc2ccccc2)cc1  Stromelysin-1 (Homo sapiens, UniProt P08254)       1.9
2  CCCc1ccc(CC[C@H](C[C@H](C)C(=O)O)C(=O)N[C@@H](CC(C)C)C(=O)Nc2ccccc2)cc1  Stromelysin-1 (Homo sapiens, UniProt P08254)        68
3  CCCc1ccc(CC[C@H](N[C@H](CCCCN2Cc3ccccc3C2=O)C(=O)O)C(=O)N[C@@H](CC(C)C)C(=O)Nc2ccccc2)cc1  Stromelysin-1 (Homo sapiens, UniProt P08254)       9.5

Here is another compound to look at.
Quote Ki reported for "CCCc1ccc(CC[C@H](CCC(=O)O)C(=O)N[C@@H](CC(C)C)C(=O)Nc2ccccc2)cc1" please.
140
